- protocol notes: Dynamic light scattering (DLS) solubility assay
- Format: physicochemical
- assay context: normalized intensity ratio of 25 μM compound vs DMSO, in PBS
observed property: Solubility (DLS Assay)

Worked cases, answers included:
CN(c1ccc(-c2nc(C(=O)O)cc3c2[nH]c2ccc(F)c(F)c23)cc1)S(=O)(=O)c1ccccc1 [PA1-1]    -(insoluble)
CS(=O)(=O)c1ccc(-c2nc(C(=O)O)cc3c2[nH]c2ccc(O)cc23)cc1 [PA73]    +/−
CN(c1ccc(-c2nc(C(=O)O)cc3c2[nH]c2cc(F)ccc23)c(F)c1)S(=O)(=O)c1ccccc1 [PA1-12]    -(insoluble)
O=C(O)c1cc2c([nH]c3cc(F)ccc32)c(-c2ccc(OCc3ccccc3)cc2)n1 [PA1-11]    -(insoluble)
O=C(O)c1cc2c([nH]c3ccccc32)c(-c2cccc(F)c2)n1 [PA5]    -(insoluble)

Identify measured Solubility (DLS Assay) corresponding to COc1ccc(S(=O)(=O)N(C)c2ccc(-c3nc(C(=O)O)cc4c3[nH]c3ccc(F)cc34)cc2)cc1 [PA2-2]
-(insoluble)
